Recorded values, source paper PMC4545913.

- Tested on: breast cancer cell lines
- Experiment description: MTT anti-proliferative effect on a small panel of breast cancer cell lines
- Format: cell-based
- Condition context: read-out: Anti-proliferative IC50 values, range over panel
Metric name: IC50

Field request: IC50 | item: COc1cc2nc(N3CCN(C)CC3)nc(NC3CCN(Cc4ccccc4)CC3)c2cc1OC
2 to 10 µM

----------
- System: BT-474
- Experiment description: MTT cell viability assay
- Assay type: cell-based
- Condition context: Homo sapiens, read-out: Cell growth IC50 BT-474
Metric name: pIC50
In plain terms, pIC50 is the concentration in mol/L turned into minus its base-10 logarithm.

API: value(readout=pIC50, system=BT-474) for record COc1cc2nc(N3CCN(C)CC3)nc(NC3CCN(Cc4ccccc4)CC3)c2cc1OC
5.68
